# CONDITIONS USED: in THF, 328.2 K
READOUT TYPE: solubility (mole fraction)
// print number alone

For O=C(O)CC(O)C(=O)O (stereo unspecified) the molecule record lists solubility (mole fraction) as 0.235

---

# CONDITIONS USED: in THF, 308.2 K
READOUT TYPE: solubility (mole fraction)
No unit in the answer, please; the number alone is enough.

O=C(O)CC(O)C(=O)O (stereo unspecified) has a reported solubility (mole fraction) of 0.156

---

# CONDITIONS USED: in acetonitrile, 308.2 K
READOUT TYPE: solubility (mole fraction)
Give your answer as a number; write no unit.

Measured solubility (mole fraction), O=C(O)CC(O)C(=O)O (stereo unspecified) : 0.009

---

# CONDITIONS USED: in acetonitrile, 313.2 K
READOUT TYPE: solubility (mole fraction)
No unit in the answer, only the number.

Reported solubility (mole fraction) for O=C(O)CC(O)C(=O)O (stereo unspecified) was 0.011

---

# CONDITIONS USED: in THF, 333.2 K
READOUT TYPE: solubility (mole fraction)

Documented solubility (mole fraction) of O=C(O)CC(O)C(=O)O (stereo unspecified) : 0.253

---

# CONDITIONS USED: in water, 313.2 K
READOUT TYPE: solubility (mole fraction)
No unit in the answer, please; the number alone is enough.

Per the records, this compound ( O=C(O)CC(O)C(=O)O (stereo unspecified) ) has solubility (mole fraction) equal to 0.106

---

# CONDITIONS USED: in 1,4-dioxane, 303.2 K
READOUT TYPE: solubility (mole fraction)
Just the number, please, no unit after it.

Memo: O=C(O)CC(O)C(=O)O (stereo unspecified) , reported solubility (mole fraction): 0.14

---

# CONDITIONS USED: in THF, 323.2 K
READOUT TYPE: solubility (mole fraction)
The response must contain the number and no unit.

The compound identified as O=C(O)CC(O)C(=O)O (stereo unspecified) registered its solubility (mole fraction) at 0.219

---

# CONDITIONS USED: in 1,4-dioxane, 318.2 K
READOUT TYPE: solubility (mole fraction)

Lab note: O=C(O)CC(O)C(=O)O (stereo unspecified) gave solubility (mole fraction) of 0.168

---

# CONDITIONS USED: in isopropanol, 308.2 K
READOUT TYPE: solubility (mole fraction)

The value of solubility (mole fraction) measured for the molecule O=C(O)CC(O)C(=O)O (stereo unspecified) turned out to be 0.045

---

# CONDITIONS USED: in water, 308.2 K
READOUT TYPE: solubility (mole fraction)
A bare number is all that is needed in reply.

The recorded solubility (mole fraction) for O=C(O)CC(O)C(=O)O (stereo unspecified) is 0.084

---

# CONDITIONS USED: in acetonitrile, 318.2 K
READOUT TYPE: solubility (mole fraction)
Respond with the number and no other words.

O=C(O)CC(O)C(=O)O (stereo unspecified) has a reported solubility (mole fraction) of 0.012

---

# CONDITIONS USED: in THF, 313.2 K
READOUT TYPE: solubility (mole fraction)
Please reply with the value in numeric form only.

# solubility (mole fraction) of O=C(O)CC(O)C(=O)O (stereo unspecified) = 0.191

---

# CONDITIONS USED: in isopropanol, 328.2 K
READOUT TYPE: solubility (mole fraction)
Answer using only a numeral; do not append any unit.

Record summary for O=C(O)CC(O)C(=O)O (stereo unspecified) : reported solubility (mole fraction) = 0.118
